Attribution: patent US10471154B2

- Tested on: SJSA-1 xenografted tumor
- Protocol Text: Inhibitory effect on the growth of SJSA-1 xenografted tumor in nude mice
- Format: in vivo
- Condition Notes: vs saline control, End; doses and routes as in E5
- Procedure: 72 Female Balb/c/nu nude mice (weighting 15-19 g) were provided by Beijing Huafukang BioScience Co., Inc. Certificate No.: SOCK (Beijing) 2014-0004. […] Tumor cells (SJSA-1) were harvested under aseptic conditions, and were adjusted to a cell density of 1×10^7 cells/ml with sterile physiological saline. […] RTV (relative tumor volume) and tumor inhibition rate were calculated. […]
Measurement Name: Inhibition rate (%) on the basis of tumor volume
I only need the number, in %, no unit after it.

{"Molecule": "COCCOCCOCCOC(=O)OC(C)OC(=O)c1ccc(NC(=O)[C@@H]2N[C@@H](CC(C)(C)C)[C@@]3(C(=O)Nc4cc(Cl)ccc43)[C@H]2c2cccc(Cl)c2F)c(OC)c1 (single isomer, unassigned) [chiral-R-SIP-PEG-3]", "Quantity Unit": "%", "Value Observed": 97.90}
{"Molecule": "COCCOCCOCCOCCOCCOCCOCCOC(=O)OC(C)OC(=O)c1ccc(NC(=O)[C@@H]2N[C@@H](CC(C)(C)C)[C@@]3(C(=O)Nc4cc(Cl)ccc43)[C@H]2c2cccc(Cl)c2F)c(OC)c1 (mixture of isomers)", "Quantity Unit": "%", "Value Observed": 96.38}

Req: For COc1cc(C(N)=O)ccc1NC(=O)[C@@H]1N[C@@H](CC(C)(C)C)C2(C(=O)Nc3cc(Cl)ccc32)[C@H]1c1cccc(Cl)c1F (mixture of isomers) [rac-SIP, reference compound] , what is its reported Inhibition rate (%) on the basis of tumor volume?
Resp: 54.89

Req: Check COCCOCCOCCOC(=O)OC(C)OC(=O)c1ccc(NC(=O)[C@@H]2N[C@@H](CC(C)(C)C)[C@@]3(C(=O)Nc4cc(Cl)ccc43)[C@H]2c2cccc(Cl)c2F)c(OC)c1 (mixture of isomers) [rac-SIP-PEG-3] too.
Resp: 90.79

Req: Check COc1cccc2c1C(=O)c1c(O)c3c(c(O)c1C2=O)C[C@@](O)(C(=O)CO)C[C@@H]3O[C@H]1C[C@H](N)[C@H](O)[C@H](C)O1 [Doxorubicin ADM, Doxorubicin, reference compound] too.
Resp: 50.38

Req: Check COCCOCCOC(=O)OC(C)OC(=O)c1ccc(NC(=O)[C@@H]2N[C@@H](CC(C)(C)C)[C@@]3(C(=O)Nc4cc(Cl)ccc43)[C@H]2c2cccc(Cl)c2F)c(OC)c1 (mixture of isomers) too.
Resp: 55.36
